Source: ChEMBL document CHEMBL3425427

target: CYP2C19 (Homo sapiens); assay: Inhibition of CYP2C19 (unknown origin) at 5 uM; assay type: ADME
Sequence (P33261 whole entry): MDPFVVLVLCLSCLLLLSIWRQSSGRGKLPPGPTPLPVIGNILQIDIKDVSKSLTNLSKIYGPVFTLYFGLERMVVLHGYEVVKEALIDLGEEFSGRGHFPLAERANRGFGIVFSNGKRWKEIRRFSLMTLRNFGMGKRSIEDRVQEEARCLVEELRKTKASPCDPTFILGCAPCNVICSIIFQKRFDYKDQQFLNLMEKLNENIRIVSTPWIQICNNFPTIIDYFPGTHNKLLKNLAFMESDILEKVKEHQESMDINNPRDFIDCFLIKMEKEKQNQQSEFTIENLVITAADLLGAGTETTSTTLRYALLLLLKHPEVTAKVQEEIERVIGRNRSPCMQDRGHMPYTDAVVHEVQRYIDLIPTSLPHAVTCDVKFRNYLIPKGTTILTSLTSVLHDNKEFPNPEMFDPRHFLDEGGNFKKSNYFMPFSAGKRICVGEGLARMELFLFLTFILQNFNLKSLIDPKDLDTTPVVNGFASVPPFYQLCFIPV
Assay Readout: inhibition at 5 µM

Give its inhibition at 5 µM value. Item: Cc1nc2ccncc2n2c(-c3ccccc3Cl)nnc12
< 50%

###

biological target: CYP2D6 (Homo sapiens, UniProt P10635); test: Inhibition of CYP2D6 (unknown origin) at 5 uM; assay type: ADME
Sequence (P10635 whole entry): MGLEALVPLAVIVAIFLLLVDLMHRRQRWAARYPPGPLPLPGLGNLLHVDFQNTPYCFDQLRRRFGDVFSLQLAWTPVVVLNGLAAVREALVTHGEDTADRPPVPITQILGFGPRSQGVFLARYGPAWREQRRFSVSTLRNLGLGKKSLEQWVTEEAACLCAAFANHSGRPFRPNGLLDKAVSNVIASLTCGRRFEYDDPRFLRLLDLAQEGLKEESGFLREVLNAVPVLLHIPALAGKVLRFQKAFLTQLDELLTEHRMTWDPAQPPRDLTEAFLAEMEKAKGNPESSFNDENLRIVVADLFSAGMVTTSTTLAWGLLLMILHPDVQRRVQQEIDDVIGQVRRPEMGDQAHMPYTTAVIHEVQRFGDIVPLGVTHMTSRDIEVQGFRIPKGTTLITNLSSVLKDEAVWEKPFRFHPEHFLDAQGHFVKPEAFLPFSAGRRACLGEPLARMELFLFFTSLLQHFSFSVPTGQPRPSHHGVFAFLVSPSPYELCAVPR
Assay Readout: inhibition at 5 µM

Can you share its inhibition at 5 µM? I mean this compound: Cc1nc2ccncc2n2c(-c3ccccc3Cl)nnc12
< 50%

###

assay: Solubility in pH 3.9 buffer with 20% HPbetaCD; type: physicochemical
Assay Readout: solubility (µg/mL)
Respond with the bare value in µg/mL.

// solubility lookup, key: Cc1nc2ccncc2n2c(-c3ccccc3Cl)nnc12
4000

###

Quick reference for concentration at 1 h among some compounds
assay: Drug level in Sprague-Dawley rat brain homogenates at 10 mg/kg, sc after 1 hr; type: ADME, organism-based; design: dose 10 mg/kg, route subcutaneous; details: read-out: Drug uptake
Provide the reading as a plain figure in ng/g.

See these solved cases before continuing.
Cc1nc2ccncc2n2c(-c3ccccc3Cl)nnc12: 2730
CCCOCc1ccc(Cl)c(-c2nnc3c(C)nc4ccncc4n23)c1: 895

Look at this compound and give its reported concentration at 1 h. CCCCOc1cncc(-c2nnc3c(C)nc4ccncc4n23)c1
789

I am curious: what concentration at 1 h value has been reported for Cc1nc2ccncc2n2c(-c3cc(COCC(F)(F)F)ccc3Cl)nnc12 ?
370

I have this compound here, COCCOc1ccc(Cl)c(-c2nnc3c(C)nc4ccncc4n23)c1 , and I need its recorded concentration at 1 h.
801

Reported concentration at 1 h for CCCCOc1ccc(Cl)c(-c2nnc3c(C)nc4ccncc4n23)c1 : what is it?
807

###

Biological target: UniProt:Q9QYJ6
Sequence (Q9QYJ6 whole entry): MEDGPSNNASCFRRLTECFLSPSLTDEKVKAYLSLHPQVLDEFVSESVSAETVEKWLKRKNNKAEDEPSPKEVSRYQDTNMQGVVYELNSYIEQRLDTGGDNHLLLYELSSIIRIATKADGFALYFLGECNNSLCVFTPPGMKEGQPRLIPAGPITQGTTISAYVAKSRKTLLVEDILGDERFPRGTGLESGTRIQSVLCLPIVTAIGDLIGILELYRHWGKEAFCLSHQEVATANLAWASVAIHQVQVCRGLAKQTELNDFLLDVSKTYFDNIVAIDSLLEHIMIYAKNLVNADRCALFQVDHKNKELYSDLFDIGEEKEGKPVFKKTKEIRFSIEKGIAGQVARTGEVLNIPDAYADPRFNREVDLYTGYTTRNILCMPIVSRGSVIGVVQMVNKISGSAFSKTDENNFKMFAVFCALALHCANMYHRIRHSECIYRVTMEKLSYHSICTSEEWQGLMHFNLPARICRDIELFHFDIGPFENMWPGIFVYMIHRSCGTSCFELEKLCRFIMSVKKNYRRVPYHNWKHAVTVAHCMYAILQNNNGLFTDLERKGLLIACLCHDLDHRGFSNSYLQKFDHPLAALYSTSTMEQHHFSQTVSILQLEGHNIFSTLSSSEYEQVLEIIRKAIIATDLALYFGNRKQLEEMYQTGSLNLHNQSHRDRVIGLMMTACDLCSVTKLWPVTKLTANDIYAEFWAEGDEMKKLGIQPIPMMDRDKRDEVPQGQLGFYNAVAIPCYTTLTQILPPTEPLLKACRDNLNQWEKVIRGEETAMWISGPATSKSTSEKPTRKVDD
Test: Inhibition of 6-His-tagged rat recombinant PDE10A expressed in Sf9 cells using [3H]cAMP incubated for 60 mins by scintillation proximity assay
Assay Readout: IC50 (µM)
Kindly answer with a numeric value in µM, unit omitted.

Cc1nc2ccncc2n2c(-c3cc(OC(F)(F)F)ccc3Cl)nnc12: 8.91
CCCOCc1ccc(Cl)c(-c2nnc3c(C)nc4ccncc4n23)c1: 3.89
Cc1nc2ccncc2n2c(-c3cc(COC(C)C)ccc3Cl)nnc12: 6.03

Shifting focus to the molecule that follows.
Request the reported IC50 associated with COCCOc1ccc(Cl)c(-c2nnc3c(C)nc4ccncc4n23)c1
9.12

###

test: AUC (0 to infinity) in Sprague-Dawley rat at 2.5 mg/kg, iv; format: ADME, organism-based; set-up: dose 2.5 mg/kg, route intravenous, time infinity; settings: plasma
Assay Readout: AUC(0-inf) (ng·h/mL)
Could you give me the number in ng·h/mL? Just the number is fine.

If you can, please state the reported AUC(0-inf) value of Cc1nc2ccncc2n2c(-c3ccccc3Cl)nnc12 .
1040

###

test: Drug metabolism in human liver microsomes at 1 uM incubated for 15 mins at 37 degC; type: ADME; settings: read-out: Drug metabolism
Assay Readout: metabolised at 0.25 h, 1 µM (%)
Answer with a number only, understood to be in %.

Cc1nc2ccncc2n2c(-c3cc(COCC(F)(F)F)ccc3Cl)nnc12: 12
COCCOc1ccc(Cl)c(-c2nnc3c(C)nc4ccncc4n23)c1: 5
Cc1nc2ccncc2n2c(-c3cc(N4CCOCC4)ccc3Cl)nnc12: 14

If you can, please state the reported metabolised at 0.25 h, 1 µM value of CCCCOc1ccc(Cl)c(-c2nnc3c(C)nc4ccncc4n23)c1 .
34

What measured metabolised at 0.25 h, 1 µM goes with Cc1nc2ccncc2n2c(-c3cc(OC(F)(F)F)ccc3Cl)nnc12 ?
3

What does the data say about its metabolised at 0.25 h, 1 µM? Entry: Cc1nc2ccncc2n2c(-c3cc(COC(C)C)ccc3Cl)nnc12
57

// returns reported metabolised at 0.25 h, 1 µM for input CCCOCc1ccc(Cl)c(-c2nnc3c(C)nc4ccncc4n23)c1
78

What does the record list as metabolised at 0.25 h, 1 µM for CCCCOc1cncc(-c2nnc3c(C)nc4ccncc4n23)c1 ?
6

Give its metabolised at 0.25 h, 1 µM value. Item: Cc1nc2ccncc2n2c(-c3ccccc3Cl)nnc12
7

###

assay: Dissociation constant, pKa of the compound; type: physicochemical
Assay Readout: pKa

Cc1nc2ccncc2n2c(-c3ccccc3Cl)nnc12: 2.7

// lookup pKa for Cc1nc2cccnc2n2c(-c3ccccc3Cl)nnc12
1

###

Target: UniProt P05177
Sequence (P05177 whole entry): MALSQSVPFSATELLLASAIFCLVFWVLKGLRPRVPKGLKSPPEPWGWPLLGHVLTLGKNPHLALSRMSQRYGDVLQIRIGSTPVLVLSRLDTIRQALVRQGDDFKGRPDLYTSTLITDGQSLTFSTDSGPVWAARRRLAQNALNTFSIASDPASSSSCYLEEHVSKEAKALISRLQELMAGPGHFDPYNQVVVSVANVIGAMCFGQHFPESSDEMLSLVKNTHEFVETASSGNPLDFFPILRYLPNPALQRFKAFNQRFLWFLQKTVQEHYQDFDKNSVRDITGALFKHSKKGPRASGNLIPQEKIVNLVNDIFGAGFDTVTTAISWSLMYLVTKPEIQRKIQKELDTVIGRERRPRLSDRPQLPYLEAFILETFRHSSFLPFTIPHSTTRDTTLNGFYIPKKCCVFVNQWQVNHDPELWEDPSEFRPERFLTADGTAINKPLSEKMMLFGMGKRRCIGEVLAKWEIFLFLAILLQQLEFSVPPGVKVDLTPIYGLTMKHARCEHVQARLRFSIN
Assay: Inhibition of CYP1A2 (unknown origin) at 5 uM
Assay type: ADME
Assay Readout: inhibition at 5 µM

Any idea what its inhibition at 5 µM is? The compound is Cc1nc2ccncc2n2c(-c3ccccc3Cl)nnc12
< 50%

###

A collection of compounds and their measured metabolised at 0.25 h, 1 µM
test: Drug metabolism in rat liver microsomes at 1 uM incubated for 15 mins at 37 degC; type: ADME; conditions: read-out: Drug metabolism
The reply should contain only the number, in %.

Please review the entries below; each comes with its answer.
Cc1nc2ccncc2n2c(-c3cc(OC(F)(F)F)ccc3Cl)nnc12: 11
Cc1nc2ccncc2n2c(-c3ccccc3Cl)nnc12: 13

Now turn to the next compound.
For the compound Cc1nc2ccncc2n2c(-c3cc(COC(C)C)ccc3Cl)nnc12 , what metabolised at 0.25 h, 1 µM is on record?
98
